test: Biodistribution in AR42J tumor-bearing nude mice; assay type: in vivo; conditions: female, CD-1 nude, mouse, AR42J tumor, iv, 1 nmol/mouse, total radioactivity, 24 h p.i., i.v. 5 MBq, read-out: AR42J Tumor
test_readout: tissue uptake at 24 h
Number first, unit second: that is the form wanted.

Req: Return tissue uptake at 24 h for the following compound: C[C@@H](O)[C@@H]1NC(=O)[C@H](CCCCN)NC(=O)[C@@H](Cc2c[nH]c3ccccc23)NC(=O)[C@H](Cc2ccc(O)cc2)NC(=O)[C@@H](NC(=O)[C@@H](Cc2ccccc2)NC(=O)CN2CCN(CC(=O)O)CCN(CC(=O)O)CCN(CC(=O)O)CC2)CSSC[C@@H](C(=O)N[C@H](CO)[C@@H](C)O)NC1=O [[^161Tb]Tb-DOTATOC, metal not drawn]
Resp: 3.8 %ID/g

Reference source for all entries: paper PMC8070648
